The binders listed here are annotated with their EC50.
Biological target: T1, hCD112R mFC recombinant protein (human; murine, UniProt Q6DKI7 41-160)
T1 construct: range 41-160; expressed in 293E cells; also called hCD112R ECD mFC; hCD112R-ECD-mFC; not shown: murine IgG2a Fc domain (MX2-mFc vector)
T1 sequence (looked up): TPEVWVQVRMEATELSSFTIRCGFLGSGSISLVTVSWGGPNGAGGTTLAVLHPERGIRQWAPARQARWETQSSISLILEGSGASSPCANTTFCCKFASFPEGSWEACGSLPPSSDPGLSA
Experiment: ELISA, coated hCD112R-ECD-mFC
parameterMeasured: EC50

{"binder": "Hu26 (antibody, IgG4, V domains shown, humanized IgG4) VH: EVQLVESGGGLVQPGGSLRLSCAASGFTFSSYHMSWVRQAPGKGLELVAAISRDGDSTYYPDTVKGRFTISRDNAKNSLYLQMNSLRAEDTAVYYCSRHEDYFGFAMDSWGQGTLVTVSS VL: AIQMTQSPSSLSASVGDRVTITCKASQSVTNDVAWYQQKPGKAPKLLIYYVSNHYTGVPSRFSGSGSGTDFTLTISSLQPEDFATYFCQQAYRSPWTFGQGTKLEIK", "testResult": "3.51 ng/mL"}
{"binder": "Hu3 (antibody, IgG4, V domains shown, humanized IgG4; also called Hu-03) VH: EVQLVESGGGLVQPGGSLRLSCAASGFTFSSYHMSWVRQAPGKGLELVAAINSNDINTYYLDTVKGRFTISRDIAKNSLYLQMNSLRAEDTAVYYCARHEDYYGFAMDYWGQGTLVTVSS VL: EIVMTQSPPTLSLSPGERVTLSCKASQSVSNDVAWYQEKPGQAPRLLIYYVSHRFTGIPARFSGSGSGTDFTLTISSLQPEDFAVYYCHQAYRSPWTFGQGTKLEIK", "testResult": "3.55 ng/mL"}
{"binder": "Hu24 (antibody, IgG4, V domains shown, humanized IgG4) VH: EVQLVESGGGLVKPGGSLRLSCAASGFTFSSYHMSWVRQAPGKGLELVSAISRDGDSTYYPDTVKGRFTISRDDAENSLYLQMNSLRAEDTAVYYCSRHEDYFGFAMDSWGQGTLVTVSS VL: EIVMTQSPPTLSLSPGERVTLSCKASQSVSNDVAWYQQKPGQAPRLLIYYVSNRFTGIPARFSGSGSGTDFTLTISSLQPEDFAVYFCQQAYRSPWTFGQGTKLEIK", "testResult": "4.29 ng/mL"}
